SUBJECT OF TEST: AD brain tissue homogenates (Homo sapiens, UniProt P10636)
Sequence (P10636 623-695 limits assumed): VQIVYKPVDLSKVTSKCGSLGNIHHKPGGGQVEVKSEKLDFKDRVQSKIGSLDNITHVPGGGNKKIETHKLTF
PROCEDURE SUMMARY: Competitive binding test using [3H]THK-5117 as radio ligand with AD brain tissue homogenates
DETAILS: 2 nM [3H]THK-5117, 100 μg homogenate, 3 hours room temperature; read-out: Ki Temporal lobe cortex (607.6 pmol/g tissue)
pKi: −log10 of the molar value.
OBSERVABLE: pKi

>>> numeric_value("CNc1ccc(-c2ccc3cc(OC[C@H](O)CF)ccc3n2)cc1 [THK-5117S]")
8.03
>>> numeric_value("CN(C)c1ccc(-c2ccc3cc(OC[C@@H](O)CF)ccc3n2)cc1 [THK-5105R, reference compound]")
7.79
>>> numeric_value("CNc1ccc(-c2ccc3cc(OCC(O)CF)ccc3n2)cc1 (centres unmarked) [THK-5117R, reference compound]")
7.59

A = CNc1ccc(-c2ccc3cc(OC[C@H](O)CF)ccc3n2)cn1 [THK-5151S]
B = CN(C)c1ccc(-c2ccc3cc(OC[C@H](O)CF)ccc3n2)cc1 [THK-5105S]
Enquiry: Please indicate which item has the smaller measured pKi: A versus B Give the label under which the chosen entry appears.
Return: A
